Provenance of the data: PubChem BioAssay (NCI)

tested on: HOP-62 NSCLC; experiment: NCI-60 one-dose screen, 48 h (100 = growth as untreated, 0 = no growth, -100 = all killed); settings: 10 µM unless noted
About 83,000 compounds went through this panel and 20% of them were active in at least one assay; those are over-represented in the sample as a whole.
property_label: growth (%)
Return type: number; implicit unit %.

Before answering, review these 8 worked examples.
compound=O=C(c1ccccc1)N(CCc1ccc(Cl)cc1)C(=S)N(C(=O)c1ccccc1)c1ccccc1 experimental_target="HOP-62 NSCLC" property_label=growth quantitative_result=118
compound=COc1ccc(-c2cn3c(C(=O)Nc4ccccc4Cl)c(-c4ccccc4)c4c3n2CCCC4)cc1 experimental_target="HOP-62 NSCLC" property_label=growth quantitative_result=88.1
compound=CN(C)CCNc1cc(-c2ccccc2)nc2ccccc12 experimental_target="HOP-62 NSCLC" property_label=growth quantitative_result=-65.4
compound=O=c1cc(NC2CCN(CCCc3ccccc3)CC2)c2cc(Cl)ccc2o1 experimental_target="HOP-62 NSCLC" property_label=growth quantitative_result=0.321
compound=COc1cccc2cc(N(C)c3nc(C)nc4ccsc34)ccc12 experimental_target="HOP-62 NSCLC" property_label=growth quantitative_result=17.1
compound="O=C(c1nc2ccccc2[nH]1)C1C(c2ccc([N+](=O)[O-])cc2)C2CC3CCCCC3N2[C@@]12C(=O)Nc1cc(Cl)ccc12 (stereo not given in full)" experimental_target="HOP-62 NSCLC" property_label=growth quantitative_result=41.3
compound="COc1ccc(-n2c(C(O)c3ccccc3)nn(CN3CCOCC3)c2=S)cc1 (stereo not given)" experimental_target="HOP-62 NSCLC" property_label=growth quantitative_result=101
compound="Oc1c(C(Nc2ccccn2)c2cccc(Oc3ccccc3)c2)ccc2cccnc12 (stereo not given)" experimental_target="HOP-62 NSCLC" property_label=growth quantitative_result=-95.7

Q: Please report the recorded growth for Cc1ccc(NCCNCC(O)CO)c2c(=O)c3ccccc3sc12 (stereo not given) .
A: 20.3

Q: Entry `Oc1[nH]c2ccccc2c1N=Nc1nnc2n1N=C(c1ccccc1)CS2` : reported growth = ?
A: 46.1

* * *

test system: RXF 393 renal; assay: NCI-60 one-dose screen, 48 h (100 = growth as untreated, 0 = no growth, -100 = all killed); details: 10 µM unless noted
The panel holds about 83,000 compounds, 20% with a hit somewhere; the sample as a whole holds those more often.
# key: entry, value: growth
// units = %; emit number, no label

Before answering, review these 8 worked examples.
molecule=CCCCN1CCN(c2ccc3nc(-c4ccc5nc(-c6ccc(C(F)(F)F)cc6)[nH]c5c4)[nH]c3c2)CC1 quantitative_result=-82
molecule=COc1ccc(CCN2C(=O)CCSC2=S)cc1OC quantitative_result=90.7
molecule=COc1ccc2oc(=O)cc(Cn3cc(Cn4cnc5c4c(=O)n(C)c(=O)n5C)nn3)c2c1 quantitative_result=120
molecule=Nc1no[n+]([O-])c1-c1nnc2c(n1)-c1ccccc1C2=O quantitative_result=91.2
molecule=COc1ccc2sc(N(Cc3cccnc3)C(=O)c3ccc(C#N)cc3)nc2c1 quantitative_result=92.8
molecule=CCOc1cccc(/C=N/NC(=O)C(=O)Nc2cccc(C(F)(F)F)c2)c1O quantitative_result=37.6
molecule=CCCCN1CCN(c2ccc3nc(-c4ccc5nc(-c6ccc(OCC)cc6)[nH]c5c4)[nH]c3c2)CC1 quantitative_result=36.9
molecule="N#Cc1c(N)nc2c(c1N)C(c1ccc(F)cc1)c1ccc(N)cc1O2 (stereo not given)" quantitative_result=92.3

Q: Name the reported growth value associated with the molecule `O=C1c2ccccc2C(=O)c2c1ccc1[nH]c(CCl)nc21`
A: 34.7

Q: Returns the measured growth for the input molecule. Input: `O=C(Nc1ccc(Br)cc1F)c1cc(Cl)ccc1O`
A: -0.138
